Documented IC50 across a set of compounds
targetDesc: GluN1/GluN2B receptors (Rattus norvegicus, UniProt P35439+Q00960)
Construct: expressed in transfected cells; host or cells: HEK293
Sequence (Q00960 27-1482, other chains not shown): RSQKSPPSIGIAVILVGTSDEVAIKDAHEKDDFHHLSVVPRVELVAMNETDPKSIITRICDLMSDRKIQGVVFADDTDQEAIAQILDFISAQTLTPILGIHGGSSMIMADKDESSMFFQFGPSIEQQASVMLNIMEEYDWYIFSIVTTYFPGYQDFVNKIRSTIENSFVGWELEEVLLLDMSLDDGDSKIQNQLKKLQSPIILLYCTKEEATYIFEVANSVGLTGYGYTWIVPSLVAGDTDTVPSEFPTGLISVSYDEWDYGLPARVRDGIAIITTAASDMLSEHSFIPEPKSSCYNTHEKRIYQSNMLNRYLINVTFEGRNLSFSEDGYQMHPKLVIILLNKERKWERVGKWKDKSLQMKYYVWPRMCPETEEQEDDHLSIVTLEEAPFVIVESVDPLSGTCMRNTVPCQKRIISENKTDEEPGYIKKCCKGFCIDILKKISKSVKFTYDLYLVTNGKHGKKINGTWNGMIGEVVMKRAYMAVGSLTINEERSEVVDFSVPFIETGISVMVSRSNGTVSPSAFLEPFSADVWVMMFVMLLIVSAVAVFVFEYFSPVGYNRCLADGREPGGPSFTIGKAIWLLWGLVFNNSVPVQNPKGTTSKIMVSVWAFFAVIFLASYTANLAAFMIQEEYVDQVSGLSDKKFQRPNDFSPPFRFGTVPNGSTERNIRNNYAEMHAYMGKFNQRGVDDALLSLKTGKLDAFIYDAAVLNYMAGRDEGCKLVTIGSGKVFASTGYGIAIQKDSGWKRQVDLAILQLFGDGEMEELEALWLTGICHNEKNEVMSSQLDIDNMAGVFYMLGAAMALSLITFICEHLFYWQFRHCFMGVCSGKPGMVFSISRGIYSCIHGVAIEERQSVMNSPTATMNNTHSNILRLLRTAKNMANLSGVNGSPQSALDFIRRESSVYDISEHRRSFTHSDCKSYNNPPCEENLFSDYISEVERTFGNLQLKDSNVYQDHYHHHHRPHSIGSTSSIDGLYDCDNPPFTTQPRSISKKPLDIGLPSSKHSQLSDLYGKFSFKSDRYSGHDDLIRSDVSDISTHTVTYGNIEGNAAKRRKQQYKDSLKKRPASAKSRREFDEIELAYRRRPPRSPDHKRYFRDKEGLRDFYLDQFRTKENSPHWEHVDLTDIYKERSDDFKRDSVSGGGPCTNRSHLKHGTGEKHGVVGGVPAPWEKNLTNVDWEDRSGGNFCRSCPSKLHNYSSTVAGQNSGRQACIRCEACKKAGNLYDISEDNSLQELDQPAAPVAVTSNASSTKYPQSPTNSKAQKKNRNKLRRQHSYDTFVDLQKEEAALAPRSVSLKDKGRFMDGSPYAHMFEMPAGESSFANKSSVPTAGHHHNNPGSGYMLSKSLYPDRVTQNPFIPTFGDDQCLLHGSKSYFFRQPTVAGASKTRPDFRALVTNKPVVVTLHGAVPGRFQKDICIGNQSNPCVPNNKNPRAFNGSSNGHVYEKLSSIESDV
experimentDescription: Patch-clamp inhibition of glutamate responses of GluN1/GluN2B receptors in transfected HEK293 cells
Type: cell-based
details: as repeated in Table 2; read-out: IC50
The figure you give is taken to be in µM; do not add the unit.

Example compounds with recorded IC50:
molecule: CC(C)(C)OC(=O)N[C@@H](CC(=O)O)C(=O)N[C@@H]1CC[C@@]2(C)[C@H](CC[C@H]3[C@@H]4CCC[C@@]4(C)CC[C@@H]32)C1
targetDesc: GluN1/GluN2B receptors (Rattus norvegicus, UniProt P35439+Q00960)
IC50 / µM: 5.4

molecule: CC(C)(C)OC(=O)N[C@H](CCC(=O)N[C@@H]1CC[C@@]2(C)[C@H](CC[C@H]3[C@@H]4CCC[C@@]4(C)CC[C@@H]32)C1)C(=O)O
targetDesc: GluN1/GluN2B receptors (Rattus norvegicus, UniProt P35439+Q00960)
IC50 / µM: 3.4

molecule: CC(C)(C)OC(=O)N[C@@H](CC(=O)N[C@@H]1CC[C@@]2(C)[C@H](CC[C@H]3[C@@H]4CCC[C@@]4(C)CC[C@@H]32)C1)C(=O)O
targetDesc: GluN1/GluN2B receptors (Rattus norvegicus, UniProt P35439+Q00960)
IC50 / µM: 4.5

Enquiry: Look up IC50: CC(C)(C)OC(=O)N[C@@H](CCC(=O)O)C(=O)N[C@@H]1CC[C@@]2(C)[C@H](CC[C@@H]3[C@@H]4CCC[C@@]4(C)CC[C@@H]32)C1
Return: 5.4
